Just for reference, patent US20200055939A1 is where these values come from.

# Subject Of Test: T1, MICB*005 on HCC1534 cells (human, UniProt Q29980 23-383)
# T1 sequence (looked up): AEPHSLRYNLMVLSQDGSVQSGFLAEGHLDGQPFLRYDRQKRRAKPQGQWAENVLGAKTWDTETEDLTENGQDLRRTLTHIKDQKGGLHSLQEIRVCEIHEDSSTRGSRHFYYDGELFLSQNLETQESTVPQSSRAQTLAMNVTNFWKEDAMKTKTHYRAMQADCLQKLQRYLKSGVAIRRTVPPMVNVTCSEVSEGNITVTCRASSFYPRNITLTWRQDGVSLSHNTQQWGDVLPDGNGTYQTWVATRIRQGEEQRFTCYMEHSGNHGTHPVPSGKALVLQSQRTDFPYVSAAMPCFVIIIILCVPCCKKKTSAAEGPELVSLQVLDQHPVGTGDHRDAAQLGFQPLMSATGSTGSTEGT
# Protocol Summary: cell-based or functional assay
EC50 of shedding inhibition reference
# value in µg/mL; strip the unit string

{"Binder": "6E1.1.12 (antibody, V domains shown, Mouse hybridoma antibody; constant regions differ by assay) VH: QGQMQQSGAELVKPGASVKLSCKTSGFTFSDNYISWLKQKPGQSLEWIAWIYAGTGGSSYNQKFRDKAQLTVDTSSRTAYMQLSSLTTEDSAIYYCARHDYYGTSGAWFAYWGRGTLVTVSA VL: DVLMTQTPLSLPVSLGDQASISCRSSQHIVHSNENTYLEWYLQKPGQSPKLLIYKVSNRFSGVPDRFSGSGSGTDFTLKISRVEAEDLGVYYCFQGSHVPWTFGGGTKVEIK", "EC50 of shedding inhibition [µg/mL]": 0.0791}

Consider now this further binder.
Can you look up the measured EC50 of shedding inhibition of 18G3 (antibody, V domains shown, Mouse variable domains; constant regions differ by assay) VH: VQLQESGPGLVKPSQSLSLTCNVTGYSITGDYAWNWIRQFPGNKLEWIGYIGYTGSTTYNPSLKSRVSITRDTSKNQFFLQLNSVTPEDTATYYCARWRNWAMDYWGLGTSVTVSS VL: DIQMTQTPSSLSASLGDRVTISCRANQDISHYLNWYQQKPDGAVKLLIYYTSRIHSGVPSRFSGSGSGTDYSLTIANLEQEDVATYFCQQGNTPPTTFGGGTKVEIK for me?
0.0124
